System: Neuregulin-1 EGF-like domain
PROTOCOL DESCRIPTION: binders of neuregulin-1 EGF-like domain, primary screen, biochemical, small-molecule microarray, 635 nm fluorescence (AID 1081);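 note: binding of the protein to compounds printed on small-molecule microarray slides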
EXPERIMENTAL SETUP: small-molecule microarray binding, higher = more signal
MEASURE NAME: composite z-score
Output spec: single numeric token, no unit.

Solved entries:
> print(dat)
                                   compound       measure.name  reported.result
1  CC(C)C[C@@H]1NC(=O)[C@H]2C[C@@H](C(=O)NCCCCCNC(=O)CS)[C@@H](c3cccc(OCCO)c3)N2C1=O  composite z-score             1.31
2  CN1CCC(CCCO)=CC1c1ccc(CN2CCCC2)cc1 (centres undefined)  composite z-score             1.27
3  COCC1=C2[C@@H](CCc3ccccc3)OB(O)C[C@@H]2[C@@H]2C(=O)N(Cc3ccccc3)C(=O)[C@@H]2C1  composite z-score          -0.0593

Alright, here's another compound for you.
Task: Tell us which composite z-score value is on record for `[N-]=[N+]=NCc1ccccc1[C@@H]1OC(c2ccc(OCCCO)cc2)=N[C@]1(Cc1ccccc1N=[N+]=[N-])C(=O)NCc1ccccc1`
Output: 1.05

====

Reported composite z-score by item:
PROTOCOL DESCRIPTION: small-molecule microarray binders of probe aLefty2, primary screen, biochemical, biotinylated probe, 635/667 nm fluorescence (AID 1094);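 note: score merges spot fluorescence near 667 nm with spot signal-to-noise ratio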
EXPERIMENTAL SETUP: higher = more signal

COMPOUND	MEASURE NAME	REPORTED RESULT
CCCCCN1CC=CC23O[C@@H]4/C=C\CCC(C)OC(=O)C4[C@H]2C(=O)N(CCCCCO)[C@@H]3C1=O (stereo partly drawn)	composite z-score	-0.0491

Task: Tell us which composite z-score value is on record for `COC(=O)[C@@]1(Cc2ccc(OC)cc2)[C@H]2c3cc(C(=O)N4CCCC4)n(CCc4c[nH]c5cc(F)ccc45)c3C[C@H]2CN1C(=O)c1ccccc1`
Output: 0.776

Task: Tell us which composite z-score value is on record for `Cc1ccc(S[C@]2(C(=O)NCC(C)C)CC(=O)N(Cc3ccccc3)[C@@H]2c2ccc(CO)cc2I)cc1`
Output: 0.124

Task: Tell us which composite z-score value is on record for `COc1ccc(C(=O)Nc2cccc(CN3C(=O)[C@@]4(O[C@@H](CCn5cc(CCO)nn5)[C@H]([Si](C)(C)c5ccc(OC)cc5)[C@H]4C)c4ccccc43)c2)cc1`
Output: 0.0361

Task: Tell us which composite z-score value is on record for `Cc1ccc(S[C@]2(C(=O)NC3CC3)CC(=O)N(C3CCCCC3)[C@@H]2c2ccc(CO)cc2I)cc1`
Output: -0.138

Task: Tell us which composite z-score value is on record for `CC(=O)NCCCC[C@@H]1NC(=O)[C@H]2C[C@@H](C(=O)NCCCCCC[N+](C)(C)C)[C@@H](c3cccc(OCCO)c3)N2C1=O`
Output: -0.16

Task: Tell us which composite z-score value is on record for `COC(=O)[C@@]1(Cc2ccccc2)[C@H]2c3cc(C(=O)N(C)C)n(Cc4c(-c5ccccc5)noc4C)c3C[C@H]2CN1C(=O)c1ccccc1`
Output: 0.531

Task: Tell us which composite z-score value is on record for `C=CCNC(=O)[C@@H]1[C@H]2C(=O)O[C@H](c3ccccc3)[C@H](c3ccccc3)N2[C@H](c2ccc(OCCO)cc2)[C@@]12C(=O)Nc1ccccc12`
Output: -0.175

====

TEST SYSTEM: NADPH oxidase 4 (Homo sapiens)
PROTOCOL DESCRIPTION: NOX4-dependent H2O2 signal modulators, primary screen, NOX inhibitor project, cell-based, HEK293-NOX4, tetracycline-induced, Amplex Red fluorescence (AID 1160)
EXPERIMENTAL SETUP: 45 min, higher = more signal, called active from +8 up or from −8 down
Activity calls are given as the source filed them.
MEASURE NAME: z-score

Solved entries:
> print(dat)
                                   molecule    reported.result
1  CC(C)c1ccc(NN2C(C(O)c3cccc(O)c3)C=CC3C(=O)N(c4ccccc4)C(=O)C32)cc1 (centres undefined)   -5.51 (inactive)
2  COc1ccc(CCNC(=O)[C@@]2(c3ccc([N+](=O)[O-])cc3)CC(=O)N(CC34CC5CC(CC(C5)C3)C4)[C@@H]2c2ccc(CO)cc2)cc1   -4.54 (inactive)
3  CN1CCC(CCCO)=CC1c1ccc(CN2CCCC2)cc1 (centres undefined)  -0.765 (inactive)

Alright, here's another molecule for you.
Task: Tell us which z-score value is on record for `O=C(CS)NCCCCCCNC(=O)[C@@H]1C[C@@H]2C(=O)N3CCC[C@H]3C(=O)N2[C@@H]1c1ccc(O)cc1`
Output: -1.38 (inactive)

====

System: Noggin (protein binding on small-molecule microarray)
PROTOCOL DESCRIPTION: Noggin binders on small-molecule microarray, primary screen, biochemical, 635/667 nm fluorescence (AID 1095);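 note: score merges 667 nm feature fluorescence with signal to noise over triplicate slides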
EXPERIMENTAL SETUP: 635 nm fluorescence, higher = more signal
MEASURE NAME: composite z-score
Output spec: single numeric token, no unit.

Solved entries:
MOLECULE	REPORTED RESULT
COCCOC(=O)N1C(=O)[C@@]2(c3cc(C#CCNC(N)=O)ccc31)[C@H](C(=O)N1CCN(c3ncccn3)CC1)[C@H]1C(=O)O[C@H](c3ccccc3)[C@H](c3ccccc3)N1[C@@H]2c1ccccc1OCCO	0.808
O=C1O[C@H](c2ccccc2)[C@H](c2ccccc2)N2[C@H]1[C@@H](C(=O)NC[C@H](O)c1ccccc1)[C@]1(C(=O)Nc3ccc(C#CCCO)cc31)[C@H]2c1ccc(O)cc1	-0.984
CCCN1C(=O)[C@@]2(CCC(=O)OC(C)(C)C)N=C(c3ccc(OCCCO)cc3)O[C@H]2c2ccccc21	1.82
COc1ccc([Si](C)(C)[C@H]2[C@H](CCn3cc([C@H](O)c4ccccc4)nn3)O[C@@]3(C(=O)N(Cc4cccc(N5CCC5=O)c4)c4ccccc43)[C@@H]2C)cc1	0.806
O=C(CS)NCCCCCCNC(=O)[C@@H]1C[C@@H]2C(=O)N3CCC[C@H]3C(=O)N2[C@@H]1c1ccc(O)cc1	-0.221

Task: Lab note: Noggin (protein binding on small-molecule microarray) assay, enter composite z-score for Cc1cc(C)cc(N2C(=O)CS(=O)(=O)C2c2cccc([N+](=O)[O-])c2)c1 (stereo unspecified) here
Output: 0.0104

Task: Lab note: Noggin (protein binding on small-molecule microarray) assay, enter composite z-score for `CCC[C@@H]1C=C(C(=O)O)[C@H](c2ccc(C)cc2)N1S(=O)(=O)c1ccc(C)cc1` here
Output: -0.327

Task: Lab note: Noggin (protein binding on small-molecule microarray) assay, enter composite z-score for `COCCOC(=O)N1C(=O)[C@@]2(c3cc(C#CC4=CCCCC4)ccc31)[C@H](C(=O)NC[C@H](O)c1ccccc1)[C@H]1C(=O)O[C@H](c3ccccc3)[C@H](c3ccccc3)N1[C@@H]2c1ccc(O)cc1` here
Output: 0.829

Task: Lab note: Noggin (protein binding on small-molecule microarray) assay, enter composite z-score for `CC(C)NC(=O)[C@@H]1c2ccccc2C(=O)N(Cc2ccccc2Cl)[C@H]1c1ccc(CO)cc1` here
Output: -0.384

Task: Lab note: Noggin (protein binding on small-molecule microarray) assay, enter composite z-score for `COc1ccc(CCNC(=O)[C@@]2(c3ccc([N+](=O)[O-])cc3)CC(=O)N(CC34CC5CC(CC(C5)C3)C4)[C@@H]2c2ccc(CO)cc2)cc1` here
Output: 0.71

Task: Lab note: Noggin (protein binding on small-molecule microarray) assay, enter composite z-score for `CC(C)N1C(=O)C[C@@](C(=O)NCc2ccccc2)(c2ccc([N+](=O)[O-])cc2)[C@H]1c1ccc(CO)cc1` here
Output: -0.112

====

TEST SYSTEM: NADPH oxidase 2 (Homo sapiens) (UniProt P04839)
Sequence (P04839 whole entry, looked up): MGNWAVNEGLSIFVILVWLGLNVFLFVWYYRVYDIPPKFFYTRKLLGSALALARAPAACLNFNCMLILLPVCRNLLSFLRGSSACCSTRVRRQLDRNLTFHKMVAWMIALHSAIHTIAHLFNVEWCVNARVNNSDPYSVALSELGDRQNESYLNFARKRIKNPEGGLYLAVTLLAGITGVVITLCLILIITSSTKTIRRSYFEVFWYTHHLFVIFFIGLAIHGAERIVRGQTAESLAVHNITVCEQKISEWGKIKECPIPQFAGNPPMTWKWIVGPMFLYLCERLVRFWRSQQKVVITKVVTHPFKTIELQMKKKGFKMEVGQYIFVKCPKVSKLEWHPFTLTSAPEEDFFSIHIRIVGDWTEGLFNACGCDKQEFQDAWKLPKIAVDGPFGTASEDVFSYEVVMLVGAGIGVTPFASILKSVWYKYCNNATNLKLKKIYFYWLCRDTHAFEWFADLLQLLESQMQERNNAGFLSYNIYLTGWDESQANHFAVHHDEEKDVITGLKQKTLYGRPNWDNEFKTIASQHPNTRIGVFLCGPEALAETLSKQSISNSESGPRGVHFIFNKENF
PROTOCOL DESCRIPTION: NOX2-dependent H2O2 signal modulators, primary screen, NOX inhibitor project, cell-based, HEK293-NOX2, PMA-stimulated, Amplex Red fluorescence (AID 1159); note: test concentration not given here
EXPERIMENTAL SETUP: 45 min, higher = more signal, called active from +8 up or from −8 down
MEASURE NAME: z-score
Output spec: single numeric token, no unit.

> print(dat)
                         structure.notation                               test.system  reported.result
1  O=C1N(CCS(=O)(=O)c2ccccc2)Cc2ccccc2[C@H]2OC(c3ccc(OCCCO)cc3)=N[C@@]12CCS(=O)(=O)c1ccccc1  NADPH oxidase 2 (Homo sapiens) (UniProt P04839)            0.644
2  O=C1O[C@H](c2ccccc2)[C@H](c2ccccc2)N2[C@H]1[C@@H](C(=O)O)[C@]1(C(=O)Nc3ccc(C#CC4(O)CCCCCC4)cc31)[C@H]2c1ccc(OCCO)cc1  NADPH oxidase 2 (Homo sapiens) (UniProt P04839)             2.71
3  CCC[C@@H]1C=C(C(=O)O)[C@H](c2ccc(C)cc2)N1S(=O)(=O)c1ccc(C)cc1  NADPH oxidase 2 (Homo sapiens) (UniProt P04839)            0.769

Alright, here's another compound for you.
Task: Lab note: NADPH oxidase 2 (Homo sapiens) (UniProt P04839) assay, enter z-score for `COCCOC(=O)N1C(=O)[C@@]2(c3cc(C#CCCO)ccc31)[C@H](c1ccc(O)cc1)N1[C@H](c3ccccc3)[C@H](c3ccccc3)OC(=O)[C@H]1[C@@H]2C(N)=O` here
Output: 0.712
